FYI, the data here is from a melting point compilation (Tetko et al.; mined from patent text by program, amines drawn as free bases though some values may be those of a salt).

The entries below come with measured melting point values attached.
reported property: melting point

{"compound": "COC(=O)c1cc(NC(=O)OC(C)(C)C)c([N+](=O)[O-])cc1C#Cc1ccccc1", "reported property": "melting point", "result value": "173 °C"}
{"compound": "Cc1c(-c2ccccc2)n(-c2c(F)cccc2F)c(-c2ccccc2)cc1=O", "reported property": "melting point", "result value": "219 to 221 °C"}
{"compound": "O=C1CC(c2ccc(F)cc2)Cc2occ(C(F)(F)F)c21 (stereo unspecified)", "reported property": "melting point", "result value": "105 to 106 °C"}
{"compound": "Cc1ccc2ncc(CSc3ccc([N+](=O)[O-])cc3)n2c1", "reported property": "melting point", "result value": "127 to 128 °C"}
{"compound": "COc1cc2c(cc1OCc1ccccc1)CCN(Cc1ccc(C#N)cc1)C2", "reported property": "melting point", "result value": "161 to 162 °C"}
{"compound": "CC(Cc1c[nH]c2ccc(F)cc12)C(=O)O (stereo unspecified)", "reported property": "melting point", "result value": "112 to 113 °C"}
{"compound": "O=c1[nH]c2ccc(C3CCN(Cc4ccc(-c5ccccc5)cc4)CC3)cc2[nH]1", "reported property": "melting point", "result value": "> 260 °C"}
{"compound": "CCCCCCC1([N+](=O)[O-])C=CC(C(=O)O)=CC1 (stereo unspecified)", "reported property": "melting point", "result value": "106 to 108 °C"}
{"compound": "COCc1ccc(N=C2NCCN2)c(Cl)c1", "reported property": "melting point", "result value": "108 to 110 °C"}
{"compound": "CCCC(=O)c1c[nH]c2c(OC)cccc2c1=O", "reported property": "melting point", "result value": "200 to 202 °C"}
{"compound": "O=C1c2cc(O)cc(O)c2C(=O)C1c1ccc(O)cc1 (stereo unspecified)", "reported property": "melting point", "result value": "180 °C"}
{"compound": "CC(C#N)c1ccc(-c2nc3ccccc3o2)cc1 (stereo unspecified)", "reported property": "melting point", "result value": "116 to 117 °C"}
{"compound": "Cc1cc(C2(C(F)(F)F)CC(C(F)(F)F)=NO2)ccc1NC(=O)c1cccc(I)c1C(=O)NC(C)C (stereo unspecified)", "reported property": "melting point", "result value": "240 to 242 °C"}
{"compound": "O=C(O)c1cc2n(n1)CCC2", "reported property": "melting point", "result value": "140 to 145 °C"}
{"compound": "CCOC(Nc1ccccc1)(OCC)c1ccnc(C(=O)c2ccc(C)cc2)c1", "reported property": "melting point", "result value": "95 to 96 °C"}
{"compound": "CCCCNC(=O)C1CC(C)(C)NC(C)(C)C1=NO (stereo unspecified)", "reported property": "melting point", "result value": "58 to 60 °C"}
{"compound": "O=C1CCCCN1[C@@H]1c2cc(C(F)(F)F)ccc2OC(CF)(CF)[C@H]1O (relative stereo)", "reported property": "melting point", "result value": "184 to 187 °C"}
{"compound": "CC12CCC(O)CC1=CCC1C2CCC2(C)C(c3ccsc3)=CCC12 (stereo unspecified)", "reported property": "melting point", "result value": "215 to 219 °C"}
{"compound": "COc1ccc(NC(=O)c2ccccc2C(c2ccc(O)cc2)c2ccc(O)cc2)c(OC)c1", "reported property": "melting point", "result value": "122 to 124 °C"}
{"compound": "CCOC(=O)c1cnn(C)c1C(=O)Nc1ccn2nc(C(C)C)nc2c1", "reported property": "melting point", "result value": "175 to 177 °C"}
{"compound": "CC(O)c1cccc(-c2ccc3nc(-c4ccc(Cl)cc4)cn3c2)c1 (stereo unspecified)", "reported property": "melting point", "result value": "168 to 170 °C"}
